Measured values drawn from ChEMBL document CHEMBL1772955 for this set.

METHOD SUMMARY: Selectivity index, ratio of CC50 for african green monkey BSC1 cells to EC50 for Ectromelia virus Moscow
Type: toxicity, cell-based, BSC-1
ASSAY CONDITIONS: read-out: Ratio CC50/EC50
OBSERVED PROPERTY: selectivity ratio
Answer using only a numeral; do not append any unit.

As a guide, the following entries are already answered.
ENTRY SMILES	selectivity ratio
CCCCCCCCCCCCCCCCCCOC[C@@H](COP(=O)(O)CO[C@H](CO)Cn1ccc(N)nc1=O)OCc1ccccc1	1100
CC(C)CCCCCCCCCCCOCCCOP(=O)(O)CO[C@H](CO)Cn1ccc(N)nc1=O	234

Provide one value: measured selectivity ratio of `CC(C)CCCCCCCCCCCCCCOCCCOP(=O)(O)CO[C@H](CO)Cn1cnc2c(N)ncnc21`
266

Provide one value: measured selectivity ratio of `CCCCCCCCCCCCCCCCOCCCOP(=O)(O)CO[C@H](CO)Cn1ccc(N)nc1=O`
202

Provide one value: measured selectivity ratio of `CCCCCCCCCCCCCCCCOCCCOP(=O)(O)CO[C@H](CO)Cn1cnc2c(N)ncnc21`
1280

Provide one value: measured selectivity ratio of `CC(C)CCCCCCCCCCCCOCCCOP(=O)(O)CO[C@H](CO)Cn1ccc(N)nc1=O`
210
